experimental_target: Human rhB7-H3 (human) (UniProt Q5ZPR3)
test_description: SPR (Biacore 8K/T200), Fab-SASA captured on immobilised albumin, B7-H3 as analyte, 1:1 model
pKd: −log10 of the molar value.
readout_label: pKd

[[record]]
binder = "AHF15945 Fab-SASA (Fab, V domains shown) VH: QVQLVQSGAEVKKPGASVKVSCKASGYTFTSYVMHWVRQAPGQRLEWMGYINSYSDGTKYNEKFKGRVTITSDTSASTAYMELSSLRSEDTAVYYCARWGGLGNGAMDYWGQGTLVTVSS VL: EIVLTQSPATLSLSPGERATLSCSVSSSVNYMHWYQQKPGQAPRRLIYDTSKLASGIPARFSGSGSGTDYTLTISSLEPEDFAVYYCQQWTSNPLTFGQGTKLEIK"
observed_value = 9.05


Where do the numbers come from? From patent US20260224701A1.
